Molecular target: CDK4/cyclinD3 (Homo sapiens, UniProt P11802)
Sequence (P11802 whole entry): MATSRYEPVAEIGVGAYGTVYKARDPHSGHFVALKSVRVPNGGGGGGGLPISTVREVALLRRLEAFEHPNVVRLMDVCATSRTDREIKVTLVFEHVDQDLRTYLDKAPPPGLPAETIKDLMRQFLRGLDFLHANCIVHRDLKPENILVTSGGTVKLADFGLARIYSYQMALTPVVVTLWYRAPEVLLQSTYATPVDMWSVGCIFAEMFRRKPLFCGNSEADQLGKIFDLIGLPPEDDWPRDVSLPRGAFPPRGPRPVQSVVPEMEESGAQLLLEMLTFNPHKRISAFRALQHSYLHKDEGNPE
Sequence (P30281 whole entry partner): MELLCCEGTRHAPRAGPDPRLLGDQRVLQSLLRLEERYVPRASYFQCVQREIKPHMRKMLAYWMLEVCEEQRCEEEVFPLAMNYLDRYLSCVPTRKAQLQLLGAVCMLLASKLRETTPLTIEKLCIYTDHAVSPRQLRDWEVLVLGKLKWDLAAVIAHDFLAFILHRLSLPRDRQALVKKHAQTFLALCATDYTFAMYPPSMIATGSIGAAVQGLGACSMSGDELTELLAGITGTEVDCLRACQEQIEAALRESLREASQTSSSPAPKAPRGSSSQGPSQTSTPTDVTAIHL
Test: Cyclin-dependent kinase activity assay (continuous ATP coupling assay), CDK4/cyclinD3
Details: CDK4/cyclinD3 60 nM, ATP 500 μM, Rb copeptide 500 μM, 15 min preincubation, pH 7.5, 1% DMSO
measurement label: IC50

molecule=CNS(=O)(=O)c1ccc(Nc2ncc(C(F)(F)F)c(-n3cc(C4COC4)cn3)n2)cc1 result="10 to 100 nM"
molecule=O=S1(=O)NCc2cc(Nc3ncc(C(F)(F)F)c(-n4cccn4)n3)ccc21 result="≥ 100 nM"
molecule=O=S(=O)(NCCCCO)c1ccc(Nc2ncc(C(F)(F)F)c(-n3cccn3)n2)cc1 result="≥ 100 nM"
molecule=CNS(=O)(=O)c1ccc(Nc2ncc(Cl)c(-n3cccn3)n2)cc1 result="≥ 100 nM"
molecule=CNS(=O)(=O)c1ccc(Nc2ncc(C(F)(F)F)c(-n3cc(N4CCN(C)CC4)cn3)n2)cc1 result="≥ 100 nM"
molecule=CNS(=O)(=O)c1ccc(Nc2ncc(C(F)(F)F)c(-n3cc(F)cn3)n2)cc1 result="≥ 100 nM"
molecule="CNS(=O)(=O)c1ccc(Nc2ncc(C(F)(F)F)c(-n3cc([C@@H]4CCC[C@H]4O)cn3)n2)cc1 (single isomer, unassigned)" result="10 to 100 nM"
molecule=[2H]C([2H])([2H])NS(=O)(=O)c1ccc(Nc2ncc(C(F)(F)F)c(-n3cc(CCC(C)(C)O)cn3)n2)cc1 result="10 to 100 nM"
